# EXPERIMENT_NOTES: Confirmation screen for delayed death inhibitors of the malarial parasite plastid, 48 hour incubation; further: nearly all actives have a fitted effect of over 65% in size; further: potency means the concentration at half of the fitted maximal effect
# COND: P. falciparum-infected erythrocytes, luciferase growth; series mostly up to 28.7 µM
About 1,200 (52%) of roughly 2,300 compounds were called active. Inconclusive results (about 34%) are left out. The set was probably picked from earlier hits. The list shows a part of the results.
READOUT_NAME: Potency

[
  {
    "COMPOUND": "CC1CCCC(NC(=O)c2cc(-c3ccncc3)nc3ccccc23)C1C (stereo not given)",
    "READOUT_NAME": "Potency",
    "DATA_VALUE": "11.2 µM (active)"
  },
  {
    "COMPOUND": "COc1ccc(OC)c(CNC(=O)c2ccc(C)c(NC(=O)C3=C(C)OCCS3)c2)c1",
    "READOUT_NAME": "Potency",
    "DATA_VALUE": "12.6 µM (active)"
  },
  {
    "COMPOUND": "Cc1noc(/C=C/c2nn(C)cc2Cl)c1[N+](=O)[O-]",
    "READOUT_NAME": "Potency",
    "DATA_VALUE": "12.6 µM (active)"
  },
  {
    "COMPOUND": "CC(C)(C)OC(=O)[C@H](Cc1ccccc1)NC(=O)c1nc[nH]c1C(=O)N1CCN(C(=O)OC(C)(C)C)CC1",
    "READOUT_NAME": "Potency",
    "DATA_VALUE": "12.6 µM (active)"
  },
  {
    "COMPOUND": "CC(CN1CCC(n2nccc2NC(=O)c2ccccc2Cl)CC1)c1ccccc1 (stereo not given)",
    "READOUT_NAME": "Potency",
    "DATA_VALUE": "15.8 µM (active)"
  },
  {
    "COMPOUND": "O=C(C[n+]1cc(Br)cc2ccccc21)c1ccccc1",
    "READOUT_NAME": "Potency",
    "DATA_VALUE": "10 µM (active)"
  },
  {
    "COMPOUND": "Cc1ccc(NC(=O)c2ccc3c(SCC(=O)O)c4c(nc3c2)CCCC4)c(Br)c1",
    "READOUT_NAME": "Potency",
    "DATA_VALUE": "11.2 µM (active)"
  },
  {
    "COMPOUND": "CC(C)(C)OC(=O)CNC(=O)c1[nH]cnc1C(=O)NC1CCN(C(=O)OC(C)(C)C)CC1",
    "READOUT_NAME": "Potency",
    "DATA_VALUE": "14.1 µM (active)"
  },
  {
    "COMPOUND": "CCCCCCCCCC[n+]1cccc2c3ccccc3ccc21",
    "READOUT_NAME": "Potency",
    "DATA_VALUE": "0.891 µM (active)"
  }
]

----------
# EXPERIMENT_NOTES: Confirmation screen for delayed death inhibitors of the malarial parasite plastid, 48 hour incubation; further: nearly all actives have a fitted effect of over 65% in size
# COND: P. falciparum-infected erythrocytes, luciferase growth; series mostly up to 28.7 µM
About 1,200 (52%) of roughly 2,300 compounds were called active. Not shown: some 34% with an inconclusive outcome. The call rests on the fitted dose curve; in most records, active means well fitted inhibition curve with a large enough effect; inconclusive means small, poorly fitted or top-dose-only effect, or effect the other way; inactive means no such curve, though single readings can be large or run the other way. The set was probably picked from earlier hits. The list shows a part of the results.
Outcomes: active, inactive

[
  {
    "COMPOUND": "CC(C)NC(=O)c1onc(CSc2cccc3ccccc23)c1C(=O)O",
    "ASSIGNED_LABEL": "inactive"
  },
  {
    "COMPOUND": "CC(C)(C)c1cc(C(=O)NNc2cccc(Cl)c2)n(Cc2ccccc2)n1",
    "ASSIGNED_LABEL": "active"
  },
  {
    "COMPOUND": "CCC(C)(C)NC(=O)C(c1cccc(OC)c1OC)N(CC(C)C)C(=O)CCC(=O)Nc1cc(C)on1 (centres undefined)",
    "ASSIGNED_LABEL": "active"
  },
  {
    "COMPOUND": "COc1ccccc1-c1cc(C(=O)N/N=C/c2sccc2C)c2ccccc2n1",
    "ASSIGNED_LABEL": "active"
  },
  {
    "COMPOUND": "Cc1[nH]c(=O)[nH]c(=O)c1S(=O)(=O)N1CCCC(C(=O)N2CCN(c3cccc(C(F)(F)F)c3)CC2)C1 (centres undefined)",
    "ASSIGNED_LABEL": "active"
  },
  {
    "COMPOUND": "Cc1nc(-c2ccc(S(=O)(=O)N3CCCN(CCc4ccccc4)CC3)s2)cs1",
    "ASSIGNED_LABEL": "active"
  },
  {
    "COMPOUND": "Cc1cccc(Cn2nc(C(C)(C)C)cc2C(=O)Nc2ccc(F)cc2)c1",
    "ASSIGNED_LABEL": "active"
  },
  {
    "COMPOUND": "COc1ccc(-c2cc(C(=O)N/N=C/c3ccc4c(c3)OCO4)c3ccccc3n2)c(OC)c1",
    "ASSIGNED_LABEL": "active"
  },
  {
    "COMPOUND": "COc1ccc(-c2cc(C(=O)N/N=C/c3sccc3C)c3ccccc3n2)c(OC)c1",
    "ASSIGNED_LABEL": "active"
  }
]

Sourced from PubChem BioAssay AID504850
